test-target: Toll-like receptor 8 (Homo sapiens, UniProt Q9NR97)
Sequence (Q9NR97 whole entry): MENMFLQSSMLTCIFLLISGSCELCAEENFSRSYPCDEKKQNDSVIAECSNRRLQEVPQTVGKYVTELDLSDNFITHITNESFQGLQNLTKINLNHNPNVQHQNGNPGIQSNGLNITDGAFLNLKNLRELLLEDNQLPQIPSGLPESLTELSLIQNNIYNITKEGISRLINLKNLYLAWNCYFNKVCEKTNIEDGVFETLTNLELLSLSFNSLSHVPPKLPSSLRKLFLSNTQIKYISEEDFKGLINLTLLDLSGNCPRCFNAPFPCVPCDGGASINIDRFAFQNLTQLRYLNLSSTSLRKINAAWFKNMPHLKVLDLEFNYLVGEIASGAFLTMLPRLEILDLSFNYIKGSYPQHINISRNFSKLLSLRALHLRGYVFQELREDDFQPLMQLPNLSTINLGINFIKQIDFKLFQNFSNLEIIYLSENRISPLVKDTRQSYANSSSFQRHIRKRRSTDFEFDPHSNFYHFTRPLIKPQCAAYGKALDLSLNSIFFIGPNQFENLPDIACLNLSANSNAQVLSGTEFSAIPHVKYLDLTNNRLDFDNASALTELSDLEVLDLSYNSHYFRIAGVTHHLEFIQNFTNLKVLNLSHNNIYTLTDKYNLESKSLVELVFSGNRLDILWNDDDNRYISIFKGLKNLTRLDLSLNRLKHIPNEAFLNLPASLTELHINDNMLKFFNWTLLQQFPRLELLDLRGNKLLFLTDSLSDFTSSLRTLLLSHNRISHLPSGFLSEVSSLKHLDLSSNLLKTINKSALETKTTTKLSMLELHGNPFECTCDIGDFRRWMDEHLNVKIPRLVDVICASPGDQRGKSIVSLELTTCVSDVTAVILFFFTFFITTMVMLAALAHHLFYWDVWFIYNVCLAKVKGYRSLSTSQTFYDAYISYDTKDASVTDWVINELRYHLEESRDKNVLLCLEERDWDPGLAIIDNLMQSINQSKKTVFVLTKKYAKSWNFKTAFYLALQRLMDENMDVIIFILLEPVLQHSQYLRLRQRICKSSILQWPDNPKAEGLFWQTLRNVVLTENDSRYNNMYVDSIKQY
run-description: Agonist activity at human TLR8 in HEK-Blue hTLR8 cells assessed as induction of SEAP production using nitrophenyl phosphate as substrate incubated for 20 hrs by microplate reader analysis
Assay type: cell-based
// values below are reported EC50
Quick reminder: number only, in nM, skip the unit.

Take a look at these entries with their results.
* CCC[C@@H](CO)Nc1nc(N)nc(C)c1Cc1ccc(CN2CCCC2)cc1OC | 63.1
* CCC[C@@H](CO)Nc1nc(N)nc(C)c1Cc1ccc(CN2CCN(C)CC2)cc1OC | 100

# evaluate next
State the recorded EC50 for this entry: `CCC[C@@H](CCO)Nc1nc(N)nc(C)c1Cc1ccc(CN(C)CCO)cc1OC`
2510

----------
test-target: Toll-like receptor 7 (Homo sapiens)
Sequence (Q9NYK1 whole entry): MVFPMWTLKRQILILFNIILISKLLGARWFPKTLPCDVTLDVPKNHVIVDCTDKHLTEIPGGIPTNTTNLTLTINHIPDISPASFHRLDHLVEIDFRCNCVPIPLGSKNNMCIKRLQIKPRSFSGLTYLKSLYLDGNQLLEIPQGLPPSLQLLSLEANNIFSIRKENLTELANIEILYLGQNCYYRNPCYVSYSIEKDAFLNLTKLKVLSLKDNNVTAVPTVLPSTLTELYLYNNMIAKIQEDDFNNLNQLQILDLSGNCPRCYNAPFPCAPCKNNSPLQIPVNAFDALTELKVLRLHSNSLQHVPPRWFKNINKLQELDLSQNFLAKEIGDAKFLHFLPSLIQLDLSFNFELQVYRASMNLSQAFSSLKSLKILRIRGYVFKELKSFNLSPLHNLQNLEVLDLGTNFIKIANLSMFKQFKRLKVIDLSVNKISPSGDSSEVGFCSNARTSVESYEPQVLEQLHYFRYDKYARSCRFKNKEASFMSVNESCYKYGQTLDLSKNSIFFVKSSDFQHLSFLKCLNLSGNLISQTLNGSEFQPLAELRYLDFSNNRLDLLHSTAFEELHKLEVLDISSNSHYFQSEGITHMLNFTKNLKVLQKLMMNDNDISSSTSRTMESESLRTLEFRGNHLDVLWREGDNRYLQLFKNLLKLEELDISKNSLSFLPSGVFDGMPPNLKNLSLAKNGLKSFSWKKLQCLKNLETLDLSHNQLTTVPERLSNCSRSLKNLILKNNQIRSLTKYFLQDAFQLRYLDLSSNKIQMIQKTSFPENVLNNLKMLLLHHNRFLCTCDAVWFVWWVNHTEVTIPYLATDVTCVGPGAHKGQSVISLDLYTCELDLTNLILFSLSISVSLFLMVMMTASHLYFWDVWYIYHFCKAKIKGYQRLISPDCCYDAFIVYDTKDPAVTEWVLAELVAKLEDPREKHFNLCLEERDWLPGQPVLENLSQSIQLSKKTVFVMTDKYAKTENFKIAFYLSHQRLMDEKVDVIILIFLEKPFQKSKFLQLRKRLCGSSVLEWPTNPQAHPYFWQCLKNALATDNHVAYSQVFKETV
run-description: Agonist activity at human TLR7 in HEK-Blue hTLR7 cells incubated for 24 hrs by quanti-blue reagent based analysis
Type: cell-based
outcome-measure: pEC50
API: returns pEC50 as number; meaning -log10 of concentration in mol/L.

Which pEC50 reading was recorded for the compound `CCCCOc1nc(N)c2[nH]c(C#N)c(Cc3cnc(CN4CCCC4)s3)c2n1` ?
6.34
